Reference source for all entries: ChEMBL document CHEMBL5143590

# Tested on: Escherichia coli
# EXPERIMENT SUMMARY: Antibacterial activity against Escherichia coli 25922 assessed as inhibition of bacterial growth by two fold serial dilution method
# Type: functional
Answer each item with its documented log10(MIC).
Recall that a logarithmic scale is used here: each number is log10 of MIC in µg/mL.

Solved cases below.
CCCCc1nc(Cl)c(C2NC(=O)NC(C)=C2C(=O)OCC)n1S(=O)(=O)c1ccc(C(F)(F)F)cc1 (stereo not drawn)    1.81
C#CCn1c(CCCC)nc(Cl)c1C1NC(=O)NC(C)=C1C(=O)OCC (stereo not drawn)    1.81
CCCCc1nc(Cl)c(C2NC(=O)NC(C)=C2C(=O)OCC)n1Cc1ccc(Cl)c(Cl)c1 (stereo not drawn)    1.81
CCCCc1nc(Cl)c(C2NC(=O)NC(C)=C2C(=O)OCC)n1S(=O)(=O)c1ccc(C(C)(C)C)cc1 (stereo not drawn)    1.81
CCCCc1nc(Cl)c(C2NC(=O)NC(CNS(=O)(=O)c3ccc(N)cc3)=C2C(=O)OCC)[nH]1 (stereo not drawn)    2.41
CCCCc1nc(Cl)c(C2NC(=O)NC(CN(c3cc(C)no3)S(=O)(=O)c3ccc(N)cc3)=C2C(=O)OCC)[nH]1 (stereo not drawn)    0.00

# map each molecule to its log10(MIC)
1. CCCCc1nc(Cl)c(C2NC(=O)NC(C)=C2C(=O)OCC)n1Cc1cccc(Cl)c1 (stereo not drawn)
2. CCCCc1nc(Cl)c(C2NC(=O)NC(C)=C2C(=O)OCC)n1C (stereo not drawn)
3. Cc1cc(NS(=O)(=O)c2ccc(N)cc2)no1 [SULFAMETHOXAZOLE]
4. CCCCc1nc(Cl)c(C2NC(=O)NC(C)=C2C(=O)OCC)n1CCN1CCOCC1 (stereo not drawn)
5. CCCCc1nc(Cl)c(C2NC(=O)NC(C)=C2C(=O)OCC)n1Cc1ccc(C)cc1 (stereo not drawn)
6. CCCCc1nc(Cl)c(C2NC(=O)NC(CN(c3nccs3)S(=O)(=O)c3ccc(N)cc3)=C2C(=O)OCC)[nH]1 (stereo not drawn)
7. CCn1cc(C(=O)O)c(=O)c2cc(F)c(N3CCNCC3)cc21 [NORFLOXACIN]

A.
1.51
1.81
0.90
2.11
1.51
2.41
0.90

# map each molecule to its log10(MIC)
1. NC1CCN(c2c(F)cc3c(=O)c(C(=O)O)cn(C4CC4)c3c2Cl)C1 (stereo not drawn) [CLINAFLOXACIN]
2. CCCCc1nc(Cl)c(C2NC(=O)NC(C)=C2C(=O)OCC)n1CCF (stereo not drawn)
3. C=CCn1c(CCCC)nc(Cl)c1C1NC(=O)NC(C)=C1C(=O)OCC (stereo not drawn)
4. CCCCc1nc(Cl)c(C2NC(=O)NC(CN(c3ccc(OC)nn3)S(=O)(=O)c3ccc(N)cc3)=C2C(=O)OCC)[nH]1 (stereo not drawn)
5. CCCCc1nc(Cl)c(C2NC(=O)NC(CN(c3nnc(C)s3)S(=O)(=O)c3ccc(N)cc3)=C2C(=O)OCC)[nH]1 (stereo not drawn)
6. CCCCc1nc(Cl)c(C2NC(=O)NC(C)=C2C(=O)OCC)n1Cc1ccccc1Cl (stereo not drawn)
7. CCCCc1nc(Cl)c(C2NC(=O)NC(C)=C2C(=O)OCC)n1S(=O)(=O)c1ccccc1 (stereo not drawn)
8. CCCCc1nc(Cl)c(C2NC(=O)NC(C)=C2C(=O)OCC)n1S(=O)(=O)c1ccc(F)cc1 (stereo not drawn)

A.
1. 0.00
2. 2.11
3. 1.81
4. 1.81
5. 2.11
6. 1.51
7. 2.11
8. 1.51

# map each molecule to its log10(MIC)
1. CCCCc1nc(Cl)c(C2NC(=O)NC(C)=C2C(=O)OCC)n1Cc1ccc(Cl)cc1 (stereo not drawn)
2. CCCCc1nc(Cl)c(C2NC(=O)NC(C)=C2C(=O)OCC)n1CC (stereo not drawn)
3. CCCCc1nc(Cl)c(C2NC(=O)NC(C)=C2C(=O)OCC)n1Cc1ccc(F)cc1 (stereo not drawn)
4. CCCCc1nc(Cl)c(C2NC(=O)NC(C)=C2C(=O)OCC)n1CC(=O)N1CCOCC1 (stereo not drawn)

A.
[1.81, 1.51, 1.20, 2.41]

# map each molecule to its log10(MIC)
1. CCCCc1nc(Cl)c(C2NC(=O)NC(C)=C2C(=O)OCC)n1S(=O)(=O)c1cccc(Cl)c1 (stereo not drawn)
2. CCCCc1nc(Cl)c(C2NC(=O)NC(C)=C2C(=O)OCC)n1CCC (stereo not drawn)
3. CCCCc1nc(Cl)c(C2NC(=O)NC(C)=C2C(=O)OCC)n1S(=O)(=O)c1cccc(Br)c1 (stereo not drawn)

A.
1: 1.51; 2: 1.51; 3: 1.51

----------
# Tested on: Enterococcus faecalis
# EXPERIMENT SUMMARY: Antibacterial activity against Enterococcus faecalis assessed as inhibition of bacterial growth by two fold serial dilution method
# Assay type: functional
Answer each item with its documented MIC.
Answers are plain numbers, in µg/mL.

CCCCc1nc(Cl)c(C2NC(=O)NC(CN(c3cc(C)no3)S(=O)(=O)c3ccc(N)cc3)=C2C(=O)OCC)[nH]1 (centres undefined)    16

# map each compound to its MIC
1. C=CCn1c(CCCC)nc(Cl)c1C1NC(=O)NC(C)=C1C(=O)OCC (centres undefined)
2. CCCCc1nc(Cl)c(C2NC(=O)NC(C)=C2C(=O)OCC)n1S(=O)(=O)c1cccc(Cl)c1 (centres undefined)
3. CCCCc1nc(Cl)c(C2NC(=O)NC(CN(c3nnc(C)s3)S(=O)(=O)c3ccc(N)cc3)=C2C(=O)OCC)[nH]1 (centres undefined)
4. CCCCc1nc(Cl)c(C2NC(=O)NC(C)=C2C(=O)OCC)n1Cc1ccccc1Cl (centres undefined)
5. CCn1cc(C(=O)O)c(=O)c2cc(F)c(N3CCNCC3)cc21 [NORFLOXACIN]
6. CCCCc1nc(Cl)c(C2NC(=O)NC(C)=C2C(=O)OCC)n1CC(=O)N1CCOCC1 (centres undefined)

A.
64
32
8
32
4
128

# map each compound to its MIC
1. CCCCc1nc(Cl)c(C2NC(=O)NC(C)=C2C(=O)OCC)n1Cc1ccc(Cl)cc1 (centres undefined)
2. C#CCn1c(CCCC)nc(Cl)c1C1NC(=O)NC(C)=C1C(=O)OCC (centres undefined)

A.
1. 64
2. 64

----------
Answer each item with its documented MIC.
# System: Escherichia coli
# EXPERIMENT SUMMARY: Antibacterial activity against Escherichia coli assessed as inhibition of bacterial growth by two fold serial dilution method
# Assay type: functional
Answers are plain numbers, in µg/mL.

C#CCn1c(CCCC)nc(Cl)c1C1NC(=O)NC(C)=C1C(=O)OCC (stereo not given)    128

# map each molecule to its MIC
1. CCCCc1nc(Cl)c(C2NC(=O)NC(C)=C2C(=O)OCC)n1Cc1ccc(F)cc1 (stereo not given)
2. CCCCc1nc(Cl)c(C2NC(=O)NC(C)=C2C(=O)OCC)n1S(=O)(=O)c1ccc(C(F)(F)F)cc1 (stereo not given)
3. CCCCc1nc(Cl)c(C2NC(=O)NC(C)=C2C(=O)OCC)n1S(=O)(=O)c1cccc(Cl)c1 (stereo not given)

A.
1. 16
2. 32
3. 64

Q. For the molecule CCCCc1nc(Cl)c(C2NC(=O)NC(C)=C2C(=O)OCC)n1CC(=O)N1CCOCC1 (stereo not given) , report MIC.
A. 128

----------
# Tested on: Staphylococcus aureus
# EXPERIMENT SUMMARY: Antibacterial activity against Staphylococcus aureus assessed as inhibition of bacterial growth by two fold serial dilution method
# Type: functional
OBSERVATION TYPE: MIC (µg/mL)
One number for each entry, in µg/mL.

CCCCc1nc(Cl)c(C2NC(=O)NC(C)=C2C(=O)OCC)n1Cc1ccc(Cl)cc1 (centres undefined)    64
NC1CCN(c2c(F)cc3c(=O)c(C(=O)O)cn(C4CC4)c3c2Cl)C1 (centres undefined) [CLINAFLOXACIN]    0.5
CCCCc1nc(Cl)c(C2NC(=O)NC(CN(c3cc(C)no3)S(=O)(=O)c3ccc(N)cc3)=C2C(=O)OCC)[nH]1 (centres undefined)    2
CCCCc1nc(Cl)c(C2NC(=O)NC(C)=C2C(=O)OCC)n1S(=O)(=O)c1ccc(C(C)(C)C)cc1 (centres undefined)    64
CCCCc1nc(Cl)c(C2NC(=O)NC(CN(c3nccs3)S(=O)(=O)c3ccc(N)cc3)=C2C(=O)OCC)[nH]1 (centres undefined)    256

# map each molecule to its MIC
1. CCCCc1nc(Cl)c(C2NC(=O)NC(C)=C2C(=O)OCC)n1Cc1cccc(Cl)c1 (centres undefined)
2. CCCCc1nc(Cl)c(C2NC(=O)NC(C)=C2C(=O)OCC)n1Cc1ccccc1Cl (centres undefined)
3. CCCCc1nc(Cl)c(C2NC(=O)NC(C)=C2C(=O)OCC)n1Cc1ccc(C)cc1 (centres undefined)
4. CCCCc1nc(Cl)c(C2NC(=O)NC(C)=C2C(=O)OCC)n1S(=O)(=O)c1cccc(Br)c1 (centres undefined)

A.
1: 64; 2: 32; 3: 64; 4: 32
